experimental-system: MNK2 (Homo sapiens)
Construct: the open reading frames of human Mnk1 and Mnk2a were amplified from cDNA
experiment-notes: Mnk2a in vitro kinase assay (indirect fluorescence polarization)
stated-conditions: pre-activated GST-Mnk2a 2.5 nM, 20 μM ATP, 30 μM substrate peptide
Form field: IC50 (one value per entry).
quantity-measured: IC50 (nM)

>>> df
                                   compound  experimental_system  value_measured
0  CCCCNC(=O)c1sc2ncnc(Nc3cccnc3O[C@H]3CC[C@H](N)CC3)c2c1C [Example 286]  MNK2 (Homo sapiens)               4
1  CO[C@H]1CC[C@H](Oc2cc(F)ccc2Nc2ncnc3sc(C(=O)NCC4COCCN4)c(C)c23)CC1 (stereo partly shown) [Example 179]  MNK2 (Homo sapiens)              30
2  COC(=O)c1sc2ncnc(Nc3cccnc3O[C@H]3CC[C@H](N)CC3)c2c1C [Example 281]  MNK2 (Homo sapiens)              66
3  Cc1c(C(=O)NCCCN2CCCC2)sc2ncnc(Nc3cccnc3O[C@H]3CC[C@H](O)CC3)c12 [Example 268]  MNK2 (Homo sapiens)              14

====

experimental-system: MNK2 (Homo sapiens, UniProt Q9HBH9)
Construct: the open reading frames of human Mnk1 and Mnk2a were amplified from cDNA
Sequence (Q9HBH9 whole entry): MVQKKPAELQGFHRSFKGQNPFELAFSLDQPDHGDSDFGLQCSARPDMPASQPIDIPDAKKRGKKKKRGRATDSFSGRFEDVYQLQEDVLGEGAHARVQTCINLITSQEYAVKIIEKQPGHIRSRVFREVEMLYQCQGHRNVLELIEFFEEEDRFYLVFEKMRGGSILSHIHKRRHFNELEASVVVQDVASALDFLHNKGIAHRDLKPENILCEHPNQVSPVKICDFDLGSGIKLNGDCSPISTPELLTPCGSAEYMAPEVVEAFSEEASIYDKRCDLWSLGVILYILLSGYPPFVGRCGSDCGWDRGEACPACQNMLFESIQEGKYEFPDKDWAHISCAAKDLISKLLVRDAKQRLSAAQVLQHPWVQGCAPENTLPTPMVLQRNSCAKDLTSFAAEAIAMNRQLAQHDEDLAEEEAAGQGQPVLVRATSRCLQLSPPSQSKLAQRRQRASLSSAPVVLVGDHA
experiment-notes: Mnk2a in vitro kinase assay (indirect fluorescence polarization)
stated-conditions: pre-activated GST-Mnk2a 2.5 nM, 20 μM ATP, 30 μM substrate peptide
The label 1 is reserved for IC50 strictly under 20 nM; -1 covers values equal to or above it.

>>> df
                                    compound                  experimental_system  cat
 0  CO[C@H]1CC[C@H](Oc2cc(F)ccc2Nc2ncnc3sc(C(=O)NCCCN4CCC(O)C4)c(C)c23)CC1 (some centres unmarked) [Example 201]  MNK2 (Homo sapiens, UniProt Q9HBH9)    1
 1  CCNC(=O)c1sc2ncnc(Nc3ccc(F)cc3O[C@H]3C[C@H](NC(C)=O)C3)c2c1C [Example 37]  MNK2 (Homo sapiens, UniProt Q9HBH9)   -1
 2  Cc1c(C(=O)NCC#CCN(C)C)sc2ncnc(Nc3ccc(F)cc3O[C@H]3CC[C@H](O)CC3)c12 [Example 165]  MNK2 (Homo sapiens, UniProt Q9HBH9)    1
 3  COC(=O)c1sc2ncnc(Nc3ccc(F)cc3O[C@@H]3CCCC[C@@H]3O)c2c1C (single isomer, unassigned) [Example 256]  MNK2 (Homo sapiens, UniProt Q9HBH9)   -1
 4  CO[C@@H]1CCCC[C@H]1Oc1cc(F)ccc1Nc1ncnc2sc(C(N)=O)c(C)c12 (racemic) [Example 50]  MNK2 (Homo sapiens, UniProt Q9HBH9)    1
 5  COC(=O)c1sc2ncnc(Nc3ccc(F)cc3O[C@@H]3C[C@H](O)C[C@H](O)C3)c2c1C [Example 28.1]  MNK2 (Homo sapiens, UniProt Q9HBH9)   -1
 6  CC(=O)N[C@H]1C[C@H](Oc2cc(F)ccc2Nc2ncnc3sc(C(=O)NC4CCN(C)CC4)c(C)c23)C1 [Example 40]  MNK2 (Homo sapiens, UniProt Q9HBH9)   -1
 7  CC(=O)N[C@H]1CC[C@H](Oc2cc(F)ccc2Nc2ncnc3sc(C(=O)N[C@@H]4C[C@H]4N)c(C)c23)C1 [Example 238]  MNK2 (Homo sapiens, UniProt Q9HBH9)   -1
 8  CO[C@H]1CC[C@H](Oc2ncccc2Nc2ncnc3sc(C(N)=O)c(C)c23)CC1 [Example 207]  MNK2 (Homo sapiens, UniProt Q9HBH9)    1
 9  CO[C@H]1CC[C@H](Oc2cc(F)ccc2Nc2ncnc3sc(C(=O)N[C@H]4CC[C@H](O)CC4)c(C)c23)CC1 [Example 183]  MNK2 (Homo sapiens, UniProt Q9HBH9)   -1
10  Cc1c(C(N)=O)sc2ncnc(Nc3ccc(F)cc3O[C@H]3CC[C@H](NS(C)(=O)=O)CC3)c12 [Example 3]  MNK2 (Homo sapiens, UniProt Q9HBH9)    1
11  CO[C@H]1CCC[C@@H](Oc2cc(F)ccc2Nc2ncnc3sc(C(=O)N[C@H]4CC[C@H](O)CC4)c(C)c23)C1 (racemic) [Example 100]  MNK2 (Homo sapiens, UniProt Q9HBH9)   -1
12  Cc1c(C(=O)NCCCCO)sc2ncnc(Nc3ccc(F)cc3O[C@H]3CC[C@H](O)CC3)c12 [Example 161]  MNK2 (Homo sapiens, UniProt Q9HBH9)    1
13  CO[C@H]1CC[C@H](Oc2cc(F)ccc2Nc2ncnc3sc(C(=O)NCCCn4ccnc4)c(C)c23)CC1 [Example 197]  MNK2 (Homo sapiens, UniProt Q9HBH9)    1

====

experimental-system: MNK2 (Homo sapiens, UniProt Q9HBH9)
Construct: the open reading frames of human Mnk1 and Mnk2a were amplified from cDNA
experiment-notes: Mnk2a in vitro kinase assay (indirect fluorescence polarization)
stated-conditions: pre-activated GST-Mnk2a 2.5 nM, 20 μM ATP, 30 μM substrate peptide
quantity-measured: IC50 (nM)

                                   molecule  value_measured
0  CO[C@H]1CCC[C@@H](Oc2ncccc2Nc2ncnc3sc(C(=O)NCCCN4CCOCC4)c(C)c23)C1 (racemic)              22
1  CCN(CC)CCCNC(=O)c1sc2ncnc(Nc3ccc(F)cc3O[C@H]3CC[C@H](OC)CC3)c2c1C              12
2  COC1CCC(Oc2cc(F)ccc2Nc2ncnc3sc(C(=O)NCCCCO)c(C)c23)CC1 (stereo not shown)              21
3  CO[C@@H]1CCC[C@@H](Oc2ncccc2Nc2ncnc3sc(C(=O)NCC#CCN)c(C)c23)C1 (racemic)              53
4  COC(=O)[C@H](CO)NC(=O)c1sc2ncnc(Nc3ccc(F)cc3O[C@H]3CC[C@H](OC)CC3)c2c1C (relative stereo)              33
5  Cc1c(C(N)=O)sc2ncnc(Nc3ccc(F)cc3O[C@@H]3CC[C@@H](O)[C@H]3O)c12 (relative stereo)              10
6  CNC(=O)CNC(=O)c1sc2ncnc(Nc3ccc(F)cc3O[C@@H]3CCC[C@H](OC)C3)c2c1C (racemic)              28

====

experimental-system: MNK2 (Homo sapiens)
Construct: the open reading frames of human Mnk1 and Mnk2a were amplified from cDNA
experiment-notes: Mnk2a in vitro kinase assay (indirect fluorescence polarization)
stated-conditions: pre-activated GST-Mnk2a 2.5 nM, 20 μM ATP, 30 μM substrate peptide
Procedure: Inhibitory potency of compounds against Mnk1, Mnk2a and other kinases was assessed with assays based on a format known to those skilled in the art as the indirect (competitive) fluorescence polarization. The assay detection system comprises a small fluorophore-labeled phospho-peptide (termed ligand) bound to a phospho-specific antibody. The product generated by the kinase reaction competes with the ligand for antibody binding. […]
quantity-measured: IC50

>>> df
                            compound_smiles  experimental_system  quantity_measured  value_measured
0  CO[C@H]1CC[C@H](Oc2cc(F)ccc2Nc2ncnc3sc(C(N)=O)c(C)c23)CC1  MNK2 (Homo sapiens)               IC50            9 nM
1  CO[C@H]1CC[C@H](Oc2cc(F)ccc2Nc2ncnc3sc(C(=O)N[C@H]4C[C@@H]4N)c(C)c23)CC1  MNK2 (Homo sapiens)               IC50           28 nM
2  CONC(=O)c1sc2ncnc(Nc3ccc(F)cc3O[C@H]3CC[C@H](NC(C)=O)C3)c2c1C  MNK2 (Homo sapiens)               IC50           16 nM
3  Cc1c(C(=O)NCCCN(C)C)sc2ncnc(Nc3cccnc3O[C@H]3CC[C@H](O)CC3)c12  MNK2 (Homo sapiens)               IC50           13 nM

====

experimental-system: MNK2 (Homo sapiens, UniProt Q9HBH9)
Construct: the open reading frames of human Mnk1 and Mnk2a were amplified from cDNA
experiment-notes: Mnk2a in vitro kinase assay (indirect fluorescence polarization)
stated-conditions: pre-activated GST-Mnk2a 2.5 nM, 20 μM ATP, 30 μM substrate peptide
pIC50: −log10 of the molar value.
quantity-measured: pIC50

>>> print(df.to_string())
                                    molecule                  experimental_system  value_measured
 0  COC(=O)c1sc2ncnc(Nc3ccc(F)cc3OC3C[C@@H](O)C[C@H](O)C3)c2c1C (relative stereo)  MNK2 (Homo sapiens, UniProt Q9HBH9)            8.05
 1  COC1CCCC(Oc2cc(F)ccc2Nc2ncnc3sc(C(=O)NCCCN4CCCC4)c(C)c23)C1 (stereo not drawn)  MNK2 (Homo sapiens, UniProt Q9HBH9)            7.42
 2  Cc1c(C(N)=O)sc2ncnc(Nc3ccc(F)cc3O[C@@H]3CC[C@H](O)[C@@H]3O)c12 (relative stereo)  MNK2 (Homo sapiens, UniProt Q9HBH9)            7.74
 3  COC(=O)N(C)[C@H]1CC[C@H](Oc2cc(F)ccc2Nc2ncnc3sc(C(N)=O)c(C)c23)CC1  MNK2 (Homo sapiens, UniProt Q9HBH9)            8.15
 4  Cc1c(C(N)=O)sc2ncnc(Nc3ccc(F)cc3OC3C[C@@H](O)[C@H](O)C3)c12 (relative stereo)  MNK2 (Homo sapiens, UniProt Q9HBH9)            8.10
 5  COCCN[C@H]1CC[C@@H](Oc2cc(F)ccc2Nc2ncnc3sc(C(N)=O)c(C)c23)CC1  MNK2 (Homo sapiens, UniProt Q9HBH9)            6.52
 6  Cc1c(C(=O)NC2CCN(C)CC2)sc2ncnc(Nc3ccc(F)cc3O[C@H]3C[C@@H]4OCO[C@@H]4C3)c12  MNK2 (Homo sapiens, UniProt Q9HBH9)            7.34
 7  Cc1c(C(N)=O)sc2ncnc(Nc3ccc(F)cc3OC3CCC3)c12  MNK2 (Homo sapiens, UniProt Q9HBH9)            8.05
 8  CO[C@H]1CC[C@H](Oc2cc(F)ccc2Nc2ncnc3sc(C(=O)NCC(O)CN(C)C)c(C)c23)CC1 (stereo partly drawn)  MNK2 (Homo sapiens, UniProt Q9HBH9)            7.89
 9  COC1CCCC(Oc2ncccc2Nc2ncnc3sc(C(=O)NCC(C)O)c(C)c23)C1 (mixture of isomers)  MNK2 (Homo sapiens, UniProt Q9HBH9)            6.98
10  CC(=O)N[C@H]1C[C@H](Oc2cc(F)ccc2Nc2ncnc3sc(C(N)=O)c(C)c23)C1  MNK2 (Homo sapiens, UniProt Q9HBH9)            7.64
11  COC1CCCC(Oc2cc(F)ccc2Nc2ncnc3sc(C(=O)NCC#CCN(C)C)c(C)c23)C1 (stereo not drawn)  MNK2 (Homo sapiens, UniProt Q9HBH9)            7.85
12  Cc1c(C(N)=O)sc2ncnc(Nc3cccnc3O[C@H]3CC[C@H](O)CC3)c12  MNK2 (Homo sapiens, UniProt Q9HBH9)            8.30
13  CC(=O)N(C)[C@H]1CC[C@@H](Oc2cc(F)ccc2Nc2ncnc3sc(C(N)=O)c(C)c23)CC1  MNK2 (Homo sapiens, UniProt Q9HBH9)            5.60
14  CNC(=O)CNC(=O)c1sc2ncnc(Nc3cccnc3O[C@@H]3CCC[C@H](OC)C3)c2c1C (racemic)  MNK2 (Homo sapiens, UniProt Q9HBH9)            7.48
